Test system: DIV17
protocol-notes: qHTS profiling for inhibitors of Plasmodium falciparum proliferation (AID 504749); further: nearly all actives have a fitted effect of over 60% in size; further: potency means the concentration at half of the fitted maximal effect
test-conditions: P. falciparum in erythrocytes, SYBR Green DNA, 72 h; series mostly up to 28.7 µM
Inconclusive results are not listed. Active and inactive are the calls of the source. The call rests on the fitted dose curve; in most records, active means well fitted inhibition curve with a large enough effect; inconclusive means small, poorly fitted or top-dose-only effect; inactive means flat fitted curve, though single readings scatter.
measured-property: Potency

* Cc1ncc(CSSCc2cnc(C)c(O)c2CO)c(CO)c1O | inactive
* CC(=O)Nc1c(I)cc(I)c(C(=O)O)c1I | inactive
* CC(O)C(=O)O (stereo not given) | inactive
* CC(C)(C)CC(C)(C)c1ccc(O)c(Cc2ccc(Cl)cc2Cl)c1 | 1.07 µM (active)
* CCCCCCCCCCCCCCCCCC(=O)OCC(O)CO (stereo not given) | inactive

Input: Which Potency value belongs to `O=C(COc1ccc(Cl)cc1)N1CCN(Cc2ccc3c(c2)OCO3)CC1` ?
Output: inactive

Input: Tell me the measured Potency of `Oc1ccc(O)cc1` , please.
Output: inactive

Input: Suppose we examine the compound `OCc1ccccc1O` ; what Potency value has been reported?
Output: inactive

Input: GET /values?readout=Potency&item= `COc1cc(OC)cc(OC)c1`
Output: inactive

Input: Report Potency for `CCCCOc1cc(C(=O)NCCN(CC)CC)c2ccccc2n1` please.
Output: inactive

Input: Name the recorded Potency for `C#C[C@]1(OC(C)=O)CC[C@H]2[C@@H]3CCC4=C[C@@H](OC(C)=O)CC[C@@H]4[C@H]3CC[C@@]21C` .
Output: inactive

Input: Which Potency is listed for `Cc1ccnc(NS(=O)(=O)c2ccc(N)cc2)n1` ?
Output: inactive

Input: Consider the compound `COCc1c(C(C)C)nc(C(C)C)c(/C=C/[C@@H](O)C[C@@H](O)CC(=O)O)c1-c1ccc(F)cc1` and give its measured Potency.
Output: inactive

Input: Reported Potency for `CC(C)NC[C@@H](O)COc1cccc2ccccc12` : what is it?
Output: 9.53 µM (active)

Input: // returns reported Potency for input `COC(=O)[C@H]1[C@H]2C[C@H]3c4[nH]c5ccccc5c4CCN3C[C@H]2CC[C@@H]1O`
Output: inactive

Input: For the compound shown here, `CCN(CC)C(=O)/C(C#N)=C/c1cc(O)c(O)c([N+](=O)[O-])c1` , give the reported Potency.
Output: inactive

Input: Which Potency is listed for `COc1cc(C(=S)N2CCOCC2)cc(OC)c1OC` ?
Output: inactive

Input: Would you mind telling me what Potency value was observed for CCOC(=O)OC(C)OC1=C(C(=O)Nc2ccccn2)N(C)S(=O)(=O)c2ccccc21 (stereo not given) ?
Output: inactive

Input: Reported Potency, compound `CC/C(=C(/CC)c1ccc(O)cc1)c1ccc(O)cc1` : ____
Output: inactive

Input: For the compound `CCOc1ccc2nc3cc(N)ccc3c(N)c2c1` , what Potency is on record?
Output: 15.1 µM (active)

Input: What value of Potency has been reported for the following compound? `O=C(O)CNC(=O)c1ccccc1`
Output: inactive

Input: Please report the recorded Potency for `Oc1ccc(Cl)c2cccnc12` .
Output: inactive

Each recorded value in this set is attributed to PubChem BioAssay (NCATS).
